Where these numbers come from: patent US20190064177A1

- System under test: Diaphorase
- Experiment: peptide array, 10 uM labeled diaphorase, no FAD
Measured metric: fluorescence

Example binders with recorded fluorescence:
QLLQLLFGGSG :: 19500
RYNLYKPSDGSG :: 50300

P = YRFAQYKGQKDGSG
Q = VLSLNQVYSEGSG
[ask] Select one: P or Q . Criterion: greater recorded fluorescence. // output: label of the selected item
[reply] P
